Target: human P450 1A2 (Homo sapiens, UniProt P05177)
Sequence (P05177 1-516): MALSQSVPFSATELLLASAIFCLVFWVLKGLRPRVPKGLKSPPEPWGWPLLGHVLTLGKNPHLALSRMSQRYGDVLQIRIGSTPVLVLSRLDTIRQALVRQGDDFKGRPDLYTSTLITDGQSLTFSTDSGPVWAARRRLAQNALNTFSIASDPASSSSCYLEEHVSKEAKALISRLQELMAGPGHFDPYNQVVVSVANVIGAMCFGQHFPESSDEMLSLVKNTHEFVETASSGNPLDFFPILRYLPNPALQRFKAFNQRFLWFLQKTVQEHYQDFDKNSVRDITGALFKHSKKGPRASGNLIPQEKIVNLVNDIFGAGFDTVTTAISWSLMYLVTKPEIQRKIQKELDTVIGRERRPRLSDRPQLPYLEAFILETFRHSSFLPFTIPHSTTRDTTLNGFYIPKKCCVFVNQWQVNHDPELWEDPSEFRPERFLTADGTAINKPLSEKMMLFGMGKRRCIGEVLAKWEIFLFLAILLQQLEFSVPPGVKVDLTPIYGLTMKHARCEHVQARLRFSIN
assayEndpoint: pKi
Worth noting: pKi values are minus log10 of concentrations stated in mol/L.

stdin: Please indicate pKi recorded for Cc1cc(Cl)c2c(c1N)C(=O)c1ccccc1C2=O [Compound 1]
stdout: 6.30
